Experimental Details: Henry solubility constant Hcp at 298.15 K (mol/(m3 Pa))
Condition Set: reference: Buttery et al. (1969)
Property Name: Henry solubility constant Hcp

For orientation, consider the following solved cases.
[
  {
    "Molecule": "CCCCCCCCC=O",
    "Henry solubility constant Hcp": 0.013
  },
  {
    "Molecule": "COC(C)=O [methyl ethanoate]",
    "Henry solubility constant Hcp": 0.086
  },
  {
    "Molecule": "CCC(=O)OC [methyl propanoate]",
    "Henry solubility constant Hcp": 0.057
  },
  {
    "Molecule": "CC(C)=O",
    "Henry solubility constant Hcp": 0.25
  },
  {
    "Molecule": "CCCCCCCC(C)=O",
    "Henry solubility constant Hcp": 0.027
  }
]

(a) CCCCC(=O)OC [methyl pentanoate]
(b) CCCCCCCC=O
(c) CCCC(=O)OC [methyl butanoate]
**Q:** Hey, quick one: sort these by Henry solubility constant Hcp, low to high? Please reply with the labels ordered as requested. Many thanks.
**A:** b, a, c
(b: 0.019, a: 0.031, c: 0.048)
